- Tested on: Liver microsomes
- method notes: Metabolic stability in human liver microsomes assessed as intrinsic clearance
- Assay type: ADME, Microsome
- Set-up: unit not given here
Classify: Condition met when CL is strictly less than 50; Condition not met when CL is not.

Req: Please let me know if CNC1=Nc2ncccc2C(c2ccccc2)=NC1c1cccs1 (stereo unspecified) shows CL below 50.
Resp: Condition met

Req: // next record NC1=Nc2ccccc2C(c2ccccc2)=NC1c1cccs1 (stereo unspecified)
Resp: Condition not met

Req: // next record CNC1=Nc2ncccc2C(c2ccco2)=NC1c1cncs1 (stereo unspecified)
Resp: Condition met

Req: // next record CNC1=Nc2nc(C)ccc2C(c2ccccc2)=NC1c1cccs1 (stereo unspecified)
Resp: Condition not met

Req: // next record COCCNC1=Nc2ccccc2C(c2ccccc2)=NC1c1cccs1 (stereo unspecified)
Resp: Condition not met

---

- method notes: Protein binding in mouse plasma
- Assay type: ADME, cell-free
- conditions used: read-out: PPB (converted)
Task for the reader: assign each of the following compounds its reported fraction unbound.
Could you respond with only the numeric value?

Req: I would be grateful if you could share the reported fraction unbound for CNC1=Nc2ncccc2C(c2ncco2)=NC1c1cccs1 (configuration not stated) .
Resp: 0.257

Req: // next record CNC1=Nc2ncccc2C(c2cccs2)=NC1c1cccs1 (configuration not stated)
Resp: 0.03

Req: // next record CNC1=Nc2ncccc2C(c2ccco2)=NC1c1ccns1 (configuration not stated)
Resp: 0.264

Req: // next record CNC1=Nc2ncccc2C(c2ccco2)=NC1c1ccco1 (configuration not stated)
Resp: 0.193

Req: // next record CNC1=Nc2ncccc2C(c2ccco2)=NC1c1sccc1Cl (configuration not stated)
Resp: 0.013

Req: // next record CNC1=Nc2ncccc2C(c2ccco2)=NC1c1cccs1 (configuration not stated)
Resp: 0.182

Req: // next record CNC1=Nc2ncccc2C(c2ccco2)=NC1c1cc(C#CC(C)O)cs1 (configuration not stated)
Resp: 0.091

Req: // next record CNC1=Nc2ncccc2C(c2cc[nH]c2)=NC1c1cccs1 (configuration not stated)
Resp: 0.246

Req: // next record CNC1=Nc2ncccc2C(c2ccco2)=NC1c1cncs1 (configuration not stated)
Resp: 0.391

Req: // next record CNC1=Nc2cncnc2C(c2ccccc2)=NC1c1cccs1 (configuration not stated)
Resp: 0.158

Req: // next record c1ccc(C2=NC(c3cccs3)C(NC3CC3)=Nc3ccccc32)cc1 (configuration not stated)
Resp: 0.03

Req: // next record CNC1=Nc2ncccc2C(c2ccns2)=NC1c1cccs1 (configuration not stated)
Resp: 0.241

---

- method notes: Protein binding in mouse plasma
- Assay type: ADME, cell-free
- conditions used: read-out: PPB (converted)
measured quantity: fraction unbound
Could you respond with only the numeric value?

Req: I would be grateful if you could share the reported fraction unbound for CCNC1=Nc2ccccc2C(c2ccccc2)=NC1c1cccs1 (centres undefined) .
Resp: 0.003

Req: // next record OC1CN(C2=Nc3ccccc3C(c3ccccc3)=NC2c2cccs2)C1 (centres undefined)
Resp: 0.01

Req: // next record NC1=Nc2ccccc2C(c2ccccc2)=NC1c1cccs1 (centres undefined)
Resp: 0.02

Req: // next record CNC1=Nc2ccccc2C(c2ccccc2)=NC1c1cccs1 (centres undefined)
Resp: 0.003

Req: // next record CNC1=Nc2c(ccc[n+]2[O-])C(c2ccccc2)=NC1c1cccs1 (centres undefined)
Resp: 0.353

Req: // next record CNC1=Nc2ncccc2C(c2ccccc2)=NC1c1cccs1 (centres undefined)
Resp: 0.041

Req: // next record CNC1=Nc2ncccc2C(C2CCCC2)=NC1c1cccs1 (centres undefined)
Resp: 0.048

Req: // next record CNC1=Nc2nc(C)ccc2C(c2ccccc2)=NC1c1cccs1 (centres undefined)
Resp: 0.039

Req: // next record CNC1=Nc2ncccc2C(c2nccs2)=NC1c1cccs1 (centres undefined)
Resp: 0.17

---

- system tested: Glutamate racemase (Helicobacter pylori J99)
- Sequence (Q9ZLT0 whole entry): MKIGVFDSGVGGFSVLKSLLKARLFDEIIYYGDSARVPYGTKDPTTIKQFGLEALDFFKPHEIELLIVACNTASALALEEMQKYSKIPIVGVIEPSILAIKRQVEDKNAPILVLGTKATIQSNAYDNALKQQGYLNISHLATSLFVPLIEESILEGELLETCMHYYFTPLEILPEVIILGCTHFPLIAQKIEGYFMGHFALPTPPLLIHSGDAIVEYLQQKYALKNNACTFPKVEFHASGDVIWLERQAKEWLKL
measured quantity: IC50 (µM)
Please state the figure in µM; there is no need to write the unit.

Req: I would be grateful if you could share the reported IC50 for CNC1=Nc2ncccc2C(c2ccns2)=NC1c1cccs1 (centres undefined) .
Resp: 1.1

Req: // next record COCCNC1=Nc2ccccc2C(c2ccccc2)=NC1c1cccs1 (centres undefined)
Resp: 18.9

Req: // next record CNC1=Nc2ncccc2C(c2ccco2)=NC1c1cncs1 (centres undefined)
Resp: 8.6

Req: // next record CNC1=Nc2ncccc2C(c2ncco2)=NC1c1cccs1 (centres undefined)
Resp: 7.7

Req: // next record CCCNC1=Nc2ccccc2C(c2ccccc2)=NC1c1cccs1 (centres undefined)
Resp: 4

Req: // next record CNC1=Nc2ncccc2C(c2cccs2)=NC1c1cccs1 (centres undefined)
Resp: 0.7

Req: // next record NC1=Nc2ccccc2C(c2ccccc2)=NC1c1cccs1 (centres undefined)
Resp: 400

Req: // next record CNC1=Nc2nc(C)ccc2C(c2ccccc2)=NC1c1cccs1 (centres undefined)
Resp: 1.7

Req: // next record CNC1=Nc2ncccc2C(C2CCCC2)=NC1c1cccs1 (centres undefined)
Resp: 4.1

Req: // next record CNC1=Nc2ncccc2C(c2ccco2)=NC1c1ccco1 (centres undefined)
Resp: 18.5

Req: // next record c1ccc(C2=NC(c3cccs3)C(NC3CC3)=Nc3ccccc32)cc1 (centres undefined)
Resp: 1.1

Req: // next record CNC1=Nc2ncccc2C(c2ccco2)=NC1c1cc(C#CC(C)O)cs1 (centres undefined)
Resp: 4.9

Req: // next record CNC1=Nc2c(ccc[n+]2[O-])C(c2ccccc2)=NC1c1cccs1 (centres undefined)
Resp: 67

Req: // next record CCNC1=Nc2ccccc2C(c2ccccc2)=NC1c1cccs1 (centres undefined)
Resp: 1.1

Req: // next record c1ccc(C2=NC(c3cccs3)C(N3CCCC3)=Nc3ccccc32)cc1 (centres undefined)
Resp: 4

Req: // next record CNC1=Nc2cncnc2C(c2ccccc2)=NC1c1cccs1 (centres undefined)
Resp: 50

Req: // next record CNC1=Nc2ccccc2C(c2ccccc2)=NC1c1cccs1 (centres undefined)
Resp: 1.7

Req: // next record CNC1=Nc2ncccc2C(c2ccccc2)=NC1c1cccs1 (centres undefined)
Resp: 2.2

Req: // next record CNC1=Nc2ncccc2C(c2ccco2)=NC1c1ccns1 (centres undefined)
Resp: 8.7

Req: // next record CNC1=Nc2ncccc2C(c2nccs2)=NC1c1cccs1 (centres undefined)
Resp: 1.7

Req: // next record CNC1=Nc2ncccc2C(c2cc[nH]c2)=NC1c1cccs1 (centres undefined)
Resp: 0.6

Req: // next record CNC1=Nc2ncccc2C(c2ccco2)=NC1c1cccs1 (centres undefined)
Resp: 2

Req: // next record CNC1=Nc2ccc(Cl)cc2C(c2ccccc2)=NC1c1cccs1 (centres undefined)
Resp: 13

Req: // next record CNC1=Nc2ncccc2C(c2ccco2)=NC1c1sccc1Cl (centres undefined)
Resp: 2.8

---

- method notes: Metabolic stability in mouse liver microsomes assessed as intrinsic clearance
- Type: ADME, Microsome
- Set-up: unit not given here
measured quantity: CL
Could you respond with only the numeric value?

Req: I would be grateful if you could share the reported CL for CNC1=Nc2ncccc2C(c2ccco2)=NC1c1cc(C#CC(C)O)cs1 (centres undefined) .
Resp: 17

Req: // next record c1ccc(C2=NC(c3cccs3)C(N3CCCC3)=Nc3ccccc32)cc1 (centres undefined)
Resp: 87

Req: // next record CNC1=Nc2ncccc2C(c2nccs2)=NC1c1cccs1 (centres undefined)
Resp: 33

Req: // next record c1ccc(C2=NC(c3cccs3)C(NC3CC3)=Nc3ccccc32)cc1 (centres undefined)
Resp: 74

Req: // next record CNC1=Nc2ncccc2C(c2ccco2)=NC1c1cncs1 (centres undefined)
Resp: 32

Req: // next record CNC1=Nc2ncccc2C(c2ccns2)=NC1c1cccs1 (centres undefined)
Resp: 37

Req: // next record CNC1=Nc2ncccc2C(c2ccco2)=NC1c1ccco1 (centres undefined)
Resp: 19

Req: // next record CNC1=Nc2ncccc2C(c2ccccc2)=NC1c1cccs1 (centres undefined)
Resp: 82

Req: // next record CNC1=Nc2ncccc2C(c2ccco2)=NC1c1cccs1 (centres undefined)
Resp: 30

Req: // next record CNC1=Nc2ncccc2C(c2cc[nH]c2)=NC1c1cccs1 (centres undefined)
Resp: 36

Req: // next record CNC1=Nc2ncccc2C(c2ncco2)=NC1c1cccs1 (centres undefined)
Resp: 19

Req: // next record CNC1=Nc2ccccc2C(c2ccccc2)=NC1c1cccs1 (centres undefined)
Resp: 97

Req: // next record CNC1=Nc2ncccc2C(c2ccco2)=NC1c1ccns1 (centres undefined)
Resp: 27

Req: // next record CNC1=Nc2cncnc2C(c2ccccc2)=NC1c1cccs1 (centres undefined)
Resp: 26

Req: // next record CNC1=Nc2c(ccc[n+]2[O-])C(c2ccccc2)=NC1c1cccs1 (centres undefined)
Resp: 41

// provenance: ChEMBL document CHEMBL1143274
